# experimental_system: Rhesus PDE2A3 (Macaca mulatta, UniProt B3VTJ2)
# Construct: made in house; host or cells: AD293 cells, transient transfection, pcDNA3.3-TOPO; lysate supernatant used as enzyme
# Sequence (B3VTJ2 1-941): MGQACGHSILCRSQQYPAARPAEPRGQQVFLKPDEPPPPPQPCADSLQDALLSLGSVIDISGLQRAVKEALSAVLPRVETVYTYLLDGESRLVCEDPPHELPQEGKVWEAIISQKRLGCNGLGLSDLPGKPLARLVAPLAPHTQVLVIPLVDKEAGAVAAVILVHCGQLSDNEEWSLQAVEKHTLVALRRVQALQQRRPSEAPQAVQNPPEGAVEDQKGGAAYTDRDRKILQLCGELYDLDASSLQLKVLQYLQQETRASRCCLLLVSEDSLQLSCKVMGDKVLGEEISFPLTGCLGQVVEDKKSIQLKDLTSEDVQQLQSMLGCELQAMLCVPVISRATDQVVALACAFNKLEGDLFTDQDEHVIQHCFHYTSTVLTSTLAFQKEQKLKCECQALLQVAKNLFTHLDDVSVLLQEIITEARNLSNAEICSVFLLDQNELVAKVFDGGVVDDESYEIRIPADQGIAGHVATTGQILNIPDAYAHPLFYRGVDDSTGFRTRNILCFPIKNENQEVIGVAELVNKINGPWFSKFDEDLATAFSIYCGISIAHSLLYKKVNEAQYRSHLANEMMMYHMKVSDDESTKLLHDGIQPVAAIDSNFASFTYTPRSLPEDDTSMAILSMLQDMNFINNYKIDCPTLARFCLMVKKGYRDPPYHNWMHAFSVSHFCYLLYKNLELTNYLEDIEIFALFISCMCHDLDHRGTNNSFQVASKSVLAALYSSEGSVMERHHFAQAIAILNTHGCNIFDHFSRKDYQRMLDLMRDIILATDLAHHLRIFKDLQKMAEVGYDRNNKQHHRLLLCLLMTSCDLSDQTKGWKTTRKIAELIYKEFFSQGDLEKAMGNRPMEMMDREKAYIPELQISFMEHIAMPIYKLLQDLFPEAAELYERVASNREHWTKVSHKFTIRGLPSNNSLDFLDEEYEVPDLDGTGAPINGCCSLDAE
# experiment: PDE2 fluorescence polarization (IMAP FP) inhibition assay, rhesus enzyme
# Format: biochemical, rhesus macaque
# setup_conditions: Lab B; read-out: Rhesus PDE2 Ki (nM) Lab B
observation_type: Ki (nM)

Example results:
>>> obs_value("Cc1nc(-n2cc([C@H](C)c3ccc(C(F)(F)F)cc3)cn2)cc(=O)[nH]1 (single isomer, unassigned) [Example 4]")
29.5
>>> obs_value("Cc1nc(-c2cnn(C(C)c3ccc(C(F)(F)F)cc3F)c2)cc(=O)[nH]1 (single isomer, unassigned) [Example 135]")
109
>>> obs_value("Cc1nc(-n2cc(C(C)c3ccc(C4CC4)cc3)cn2)cc(=O)[nH]1 (centres unmarked)")
99.9
>>> obs_value("Cc1nc(-c2cnn(C(C)c3ccc(C(F)(F)F)cc3F)c2)cc(=O)[nH]1 (single isomer, unassigned) [Example 136]")
11.1
>>> obs_value("Cc1ccc(C(C)n2cc(-c3cc(=O)[nH]c(C)n3)cn2)cc1 (centres unmarked)")
825

(I) COc1ccc(Cc2nc(-c3cnn(C(C)c4ccc(C(F)(F)F)cc4F)c3)cc(=O)[nH]2)cc1OC (single isomer, unassigned) [Example 67]
(II) Cc1nc(-c2cnn(C(C)c3ccc(C(F)(F)F)cc3C)c2)cc(=O)[nH]1 (single isomer, unassigned) [Example 56]
**Q:** Of I versus II , which is the one with smaller reported Ki? Your answer should be the label attached to the chosen record.
**A:** I
